Molecular target: β-catenin (Homo sapiens)
Sequence (P35222 1-781): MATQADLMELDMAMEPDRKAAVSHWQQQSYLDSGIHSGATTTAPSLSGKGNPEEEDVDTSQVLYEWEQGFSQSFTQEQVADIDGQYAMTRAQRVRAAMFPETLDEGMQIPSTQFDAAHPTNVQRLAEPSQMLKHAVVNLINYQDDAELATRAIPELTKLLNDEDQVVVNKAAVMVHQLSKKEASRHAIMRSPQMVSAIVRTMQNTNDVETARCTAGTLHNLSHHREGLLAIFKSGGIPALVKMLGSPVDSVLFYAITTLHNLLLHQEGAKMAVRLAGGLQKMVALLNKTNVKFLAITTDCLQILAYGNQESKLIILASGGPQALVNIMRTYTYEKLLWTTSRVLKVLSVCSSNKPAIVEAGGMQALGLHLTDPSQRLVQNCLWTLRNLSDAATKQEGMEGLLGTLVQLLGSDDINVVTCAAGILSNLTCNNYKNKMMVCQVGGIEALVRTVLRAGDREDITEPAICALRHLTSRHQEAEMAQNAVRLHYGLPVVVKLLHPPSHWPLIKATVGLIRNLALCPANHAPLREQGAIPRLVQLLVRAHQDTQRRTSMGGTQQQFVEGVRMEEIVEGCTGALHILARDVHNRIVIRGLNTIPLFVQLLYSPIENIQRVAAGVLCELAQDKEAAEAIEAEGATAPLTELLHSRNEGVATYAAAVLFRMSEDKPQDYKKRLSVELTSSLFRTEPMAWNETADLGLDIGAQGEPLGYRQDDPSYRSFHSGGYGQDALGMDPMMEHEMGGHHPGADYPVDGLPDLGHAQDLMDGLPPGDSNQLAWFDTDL
Assay: KD50 measurement using competitive fluorescence polarization (FP) with labelled TCF4
Format: binding
Conditions: fluorescence polarization, β-catenin
Where a SMILES comes first, the peptide text is derived from it.

molecule	β-Cat FP Hill slope
CC[C@H](C)[C@H](NC(=O)[C@H](Cc1c[nH]c2ccccc12)NC(=O)[C@@H](N)CCSC)C(=O)N[C@@H](CC(C)C)C(=O)N[C@H](C(=O)NC(C)(CO)C(=O)N[C@@H](Cc1ccccc1)C(=O)N[C@@H](Cc1c[nH]c2ccccc12)C(=O)NCC(=O)O)[C@@H](C)CC (stereo partly drawn) [compound 136] (HELM PEPTIDE1{M.W.I.L.I.[CC(CO)(N[*:1])C(=O)[*:2]].F.W.G}$$$$V2.0)	0.9
CC[C@H](C)[C@H](NC(=O)[C@H](CC(C)C)NC(=O)[C@@H](NC(=O)[C@H](Cc1c[nH]c2ccccc12)NC(C)=O)[C@@H](C)CC)C(=O)N[C@@H](CO)C(=O)N[C@@H](Cc1ccccc1)C(=O)N[C@@H](Cc1c[nH]c2ccccc12)C(=O)NCC(=O)O [compound 195] (Ac-WILISFWG-OH)	3
CC[C@H](C)[C@H](NC(=O)[C@H](CC(C)C)NC(=O)[C@@H](NC(=O)[C@H](Cc1c[nH]c2ccccc12)NC(=O)[C@H](CCSC)NC(=O)[C@@H](N)CCCCN)[C@@H](C)CC)C(=O)N[C@@H](CS)C(=O)N[C@@H](Cc1ccccc1)C(=O)N[C@@H](Cc1c[nH]c2ccccc12)C(=O)NCC(=O)O [compound 113] (H-KMWILICFWG-OH)	0.7

###

The following molecules are shown together with reported viability values.
Conditions: % Viability non-Wnt responsive cells
Where a SMILES comes first, the peptide text is derived from it.

molecule	value-units	viability
CC[C@H](C)[C@H](NC(=O)[C@H](CC(C)C)NC(=O)[C@H](Cc1ccccc1)NC(=O)[C@H](Cc1c[nH]c2ccccc12)NC(=O)[C@H](CCSC)NC(=O)[C@H](CCCNC(=N)N)NC(=O)[C@H](CO)NC(=O)[C@@H](N)CCC(=O)O)C(=O)N[C@@H](CO)C(=O)N[C@@H](Cc1ccccc1)C(=O)N[C@@H](Cc1c[nH]c2ccccc12)C(N)=O [compound 86] (H-ESRMWFLISFW-NH2)	%	103
CCCC[C@H](N)C(=O)N[C@@H](Cc1c[nH]c2ccccc12)C(=O)N[C@@H](Cc1ccccc1)C(=O)N[C@@H](CC(C)C)C(=O)N[C@H](C(=O)N[C@@H](CS)C(=O)N[C@@H](Cc1ccccc1)C(=O)N[C@@H](Cc1c[nH]c2ccccc12)C(=O)NCC(=O)O)[C@@H](C)CC [compound 164] (HELM PEPTIDE1{[Nle].W.F.L.I.C.F.W.G}$$$$V2.0)	%	100
CC[C@H](C)[C@H](NC(=O)[C@H](CC(C)C)NC(=O)[C@H](Cc1ccccc1)NC(=O)[C@H](Cc1c[nH]c2ccccc12)NC(=O)[C@@H](N)CCSC)C(=O)N[C@@H](CS)C(=O)N[C@@H](Cc1ccccc1)C(=O)N[C@@H](Cc1c[nH]c2ccccc12)C(=O)N(C)CC(=O)O [compound 213] (HELM PEPTIDE1{M.W.F.L.I.C.F.W.[Sar]}$$$$V2.0)	%	112
CC[C@H](C)[C@H](NC(=O)[C@H](CC(C)C)NC(=O)[C@H](Cc1ccccc1)NC(=O)[C@H](Cc1c[nH]c2ccccc12)NC(=O)[C@@H](N)CCSC)C(=O)N[C@@H](CCC(N)=O)C(=O)N[C@@H](Cc1ccccc1)C(=O)N[C@@H](Cc1c[nH]c2ccccc12)C(=O)NCC(=O)O [compound 143] (H-MWFLIQFWG-OH)	%	104
CC[C@H](C)[C@H](NC(=O)[C@H](CC(C)C)NC(=O)[C@H](Cc1ccccc1)NC(=O)[C@H](Cc1c[nH]c2ccccc12)NC(=O)[C@H](CCSC)NC(=O)[C@H](CCCNC(=N)N)NC(=O)[C@H](CO)NC(=O)[C@@H](N)CCSC)C(=O)N[C@@H](CO)C(=O)N[C@@H](Cc1ccccc1)C(=O)N[C@@H](Cc1c[nH]c2ccccc12)C(=O)N[C@H](C(=O)NCC(=O)O)[C@@H](C)O [compound 44] (H-MSRMWFLISFWTG-OH)	%	102
CSCC[C@H](NC(=O)[C@H](CCCNC(=N)N)NC(=O)[C@H](CO)NC(=O)[C@@H](N)CCSC)C(=O)N[C@@H](Cc1c[nH]c2ccccc12)C(=O)N[C@@H](Cc1ccccc1)C(=O)N[C@@H](CC(C)C)C(=O)N[C@H](C(=O)N[C@@H](CO)C(=O)N[C@@H](Cc1ccccc1)C(=O)N[C@@H](Cc1c[nH]c2ccccc12)C(=O)NCC(=O)O)[C@@H](C)O [compound 62] (H-MSRMWFLTSFWG-OH)	%	104
